# TARGET UNDER TEST: TAAR1 (Homo sapiens)
# Sequence (Q96RJ0 whole entry): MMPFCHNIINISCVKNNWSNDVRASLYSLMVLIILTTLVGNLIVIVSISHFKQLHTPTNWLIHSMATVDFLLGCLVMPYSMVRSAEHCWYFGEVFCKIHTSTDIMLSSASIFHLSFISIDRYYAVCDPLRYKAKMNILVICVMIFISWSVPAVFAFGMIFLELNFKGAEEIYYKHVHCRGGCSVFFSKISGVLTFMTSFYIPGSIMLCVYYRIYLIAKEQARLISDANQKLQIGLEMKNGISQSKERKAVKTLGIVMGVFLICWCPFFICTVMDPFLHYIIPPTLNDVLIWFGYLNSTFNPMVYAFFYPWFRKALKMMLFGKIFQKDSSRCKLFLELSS
# ASSAY NOTES: BRET-based cellular cAMP (EPAC biosensor) assay of TAAR1 agonism in transfected HEK-293 cells
# CONDITION DETAILS: HEK293, read-out: Emax: maximum observed activation of TAAR1 relative to that observed for 1 μM of β-PEA
Emax values by entry
Answer format: numeric, % implied, no suffix.

Exercise: // returns reported Emax for input Cc1ccc(Oc2cccc(-c3nnc(CCN)[nH]3)c2)c(C)c1.Cl.Cl [Compound 52]
Key: 79

Exercise: Request: Cc1ccc(Oc2ccc(-c3nnc(CCN)[nH]3)cc2)cc1C.Cl [Compound 51]
Key: 77

Exercise: And the next one, Cc1ccc(-c2nnc(CCN)[nH]2)cc1C.Cl [Compound 37] ?
Key: 70

Exercise: Similarly, Cc1cc(-c2nnc(CCN)[nH]2)ccc1OCc1ccccc1F.Cl [Compound 46] ?
Key: 82

Exercise: Repeat with Cl.NCCc1nnc(-c2ccc(-c3cc(F)cc(F)c3)cc2)[nH]1 [Compound 65]
Key: 105

Exercise: Same lookup for Cl.NCCc1nnc(-c2ccccc2Br)[nH]1 [Compound 29] , please.
Key: 111

Exercise: Now the same for Cl.NCCc1nnc(-c2ccccc2)[nH]1 [Compound 22]
Key: 118

Exercise: Item: Cl.NCCc1nnc(-c2cc(Cl)cc(Cl)c2)[nH]1 [Compound 21]
Key: 112

Exercise: Now the molecule Cl.NCCc1nnc(-c2ccc(OCc3cccc(F)c3)cc2)[nH]1 [Compound 44]
Key: 112

Exercise: Here is the next molecule: Cl.NCCc1nnc(-c2ccc(-c3cccc(C(F)(F)F)c3)cc2)[nH]1 [Compound 63]
Key: 76

Exercise: Here is the next molecule: Cl.NCCc1nnc(-c2cccc(I)c2)[nH]1 [Compound 41]
Key: 80

Exercise: Same lookup for Cc1ccc(Oc2ccc(-c3nnc(CCN)[nH]3)cc2)cc1.Cl [Compound 54] , please.
Key: 94

----------
# TARGET UNDER TEST: TAAR1 (Homo sapiens)
# ASSAY NOTES: BRET-based cellular cAMP (EPAC biosensor) assay of TAAR1 agonism in transfected HEK-293 cells
MEASURED PROPERTY: pEC50
pEC50 is defined as minus the log10 of a concentration measured in mol/L.

Illustrative cases are given below, each with its answer.
>>> endpoint_result("Cc1cc(-c2nnc(CCN)[nH]2)ccc1OCc1ccc(F)cc1.Cl [Compound 48]")
6.79
>>> endpoint_result("Cl.NCCc1nnc(-c2ccc(-c3ccc(OC(F)(F)F)cc3)cc2)[nH]1 [Compound 59]")
7.89
>>> endpoint_result("Cl.NCCc1nnc(-c2ccc(-c3cc(F)cc(F)c3)cc2)[nH]1 [Compound 65]")
7.89
>>> endpoint_result("Cl.NCCc1nnc(-c2ccc(Cl)cc2)[nH]1 [Compound 28]")
6.28

Exercise: Please look up its pEC50: Cc1cc(-c2nnc(CCN)[nH]2)ccc1OCc1cccc(F)c1.Cl [Compound 47]
Key: 6.85

Exercise: Please give the result for Cc1ccc(Oc2ccc(-c3nnc(CCN)[nH]3)cc2)cc1C.Cl [Compound 51] too.
Key: 6.05

Exercise: What about this compound? Cl.NCCc1nnc(-c2ccc(-c3ccc(Cl)cc3)cc2)[nH]1 [Compound 62]
Key: 8.40

Exercise: Now give it for COc1ccc(-c2ccc(-c3nnc(CCN)[nH]3)cc2)cc1.Cl [Compound 58] too.
Key: 8.22

Exercise: Queued: Cl.NCCc1nnc(-c2ccc(OC(F)(F)F)cc2)[nH]1 [Compound 9]
Key: 6.51

Exercise: Same question for Cl.NCCc1nnc(-c2ccc(-c3ccc(F)cc3F)cc2)[nH]1 [Compound 61] please.
Key: 7.74
